Every entry's value here was drawn from ChEMBL document CHEMBL3769376.

Kindly state IC50 for each of the entries shown.
Target: Bromodomain-containing protein 9 (Homo sapiens, UniProt Q9H8M2)
Sequence (Q9H8M2 whole entry): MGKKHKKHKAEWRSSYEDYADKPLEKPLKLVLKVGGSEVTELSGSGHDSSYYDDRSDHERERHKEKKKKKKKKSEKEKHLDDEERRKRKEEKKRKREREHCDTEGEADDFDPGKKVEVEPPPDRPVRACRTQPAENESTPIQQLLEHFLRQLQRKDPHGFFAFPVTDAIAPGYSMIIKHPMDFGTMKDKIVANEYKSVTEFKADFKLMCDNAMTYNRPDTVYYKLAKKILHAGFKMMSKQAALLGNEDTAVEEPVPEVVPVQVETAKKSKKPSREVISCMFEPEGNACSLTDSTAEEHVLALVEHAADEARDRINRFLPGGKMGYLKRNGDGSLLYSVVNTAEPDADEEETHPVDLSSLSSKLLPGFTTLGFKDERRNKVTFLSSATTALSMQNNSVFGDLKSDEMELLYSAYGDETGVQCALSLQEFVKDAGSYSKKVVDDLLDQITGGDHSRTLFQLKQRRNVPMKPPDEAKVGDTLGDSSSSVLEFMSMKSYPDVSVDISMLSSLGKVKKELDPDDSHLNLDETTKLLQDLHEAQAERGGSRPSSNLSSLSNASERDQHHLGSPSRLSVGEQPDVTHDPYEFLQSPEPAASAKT
Assay: Inhibition of BRD9 (unknown origin) incubated in dark for 30 mins by TR-FRET assay
One number for each entry, in nM.

SMILES NOTATION: CNC(=N)c1cc2c(=O)n(C)cc(-c3ccc(OC)c(OC)c3)c2s1
VALUE MEASURED: 79.4
--
SMILES NOTATION: COc1ccc(-c2cn(C)c(=O)c3cc(C(=N)NC4CCS(=O)(=O)CC4)sc23)cc1OC
VALUE MEASURED: 7.94
--
SMILES NOTATION: COc1ccc(-c2cn(C)c(=O)c3cc(C(=O)N(C)C)sc23)cc1OC
VALUE MEASURED: 5010

# batch size: 6; output IC50 per entry
1. COc1cccc(-c2cn(C)c(=O)c3cc(C(=N)NC4CCS(=O)(=O)CC4)sc23)c1
2. CNC(=O)c1cc2c(=O)n(C)cc(-c3ccc(OC)c(OC)c3)c2s1
3. COc1ccc(-c2cn(C)c(=O)c3cc(C(=O)NC4CCS(=O)(=O)CC4)sc23)cc1OC
4. COc1ccc(-c2cn(C)c(=O)c3cc(C(=O)N4CCCCC4)sc23)cc1OC
5. Cn1cc(-c2cccc(C#N)c2)c2sc(C(=N)NC3CCS(=O)(=O)CC3)cc2c1=O
6. CC(C)n1cc(-c2cccc(C(F)(F)F)c2)c2sc(C(=N)NC3CCS(=O)(=O)CC3)cc2c1=O

1: 12.6; 2: 126; 3: 12.6; 4: 3980; 5: 39.8; 6: 3160
